- system-name: T1, human TREM2 (human, UniProt Q9NZC2 19-174, limits assumed)
- T1 sequence: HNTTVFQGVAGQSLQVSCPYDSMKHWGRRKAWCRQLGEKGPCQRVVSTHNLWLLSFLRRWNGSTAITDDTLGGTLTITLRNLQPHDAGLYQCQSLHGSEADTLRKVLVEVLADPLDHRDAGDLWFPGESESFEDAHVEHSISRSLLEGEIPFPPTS
- test-description: yeast-displayed Fab FACS, 2nd screen 100 nM
experimental-endpoint: binding signal fold over 6E7 parental (fold)
Form entry: value (fold) — number only.

binding signal fold over 6E7 parental for V18 (Fab, V domains shown) VH: EVQLVQSGAEVKKPGESLKISCKGSGYSFTSYHIAWVRQMPGKGLEWMGIIYPGDSDTRYSPSFQGQVTISADKSISTAYLQWSSLKASDTAMYFCARQRTFYYDSSDYFDYWGQGTLVTVSS VL: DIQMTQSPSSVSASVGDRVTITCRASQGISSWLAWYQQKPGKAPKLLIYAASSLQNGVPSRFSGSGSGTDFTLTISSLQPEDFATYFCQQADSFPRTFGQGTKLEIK is 0.42

binding signal fold over 6E7 parental for V22 (Fab, V domains shown) VH: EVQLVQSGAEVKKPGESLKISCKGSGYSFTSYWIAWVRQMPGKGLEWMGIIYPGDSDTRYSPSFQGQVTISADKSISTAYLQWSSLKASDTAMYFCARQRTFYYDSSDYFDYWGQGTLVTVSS VL: DIQMTQSPSSVSASVGDRVTITCRASQGISSWLAWYQQKPGKAPKLLIYRASSLQNGVPSRFSGSGSGTDFTLTISSLQPEDFATYFCQQADSFPRTFGQGTKLEIK is 0.71

binding signal fold over 6E7 parental for V90 (Fab, V domains shown) VH: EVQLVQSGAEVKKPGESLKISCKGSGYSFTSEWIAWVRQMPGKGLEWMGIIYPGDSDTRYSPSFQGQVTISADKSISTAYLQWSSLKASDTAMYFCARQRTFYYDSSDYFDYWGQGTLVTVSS VL: DIQMTQSPSSVSASVGDRVTITCRASQGISRWLAWYQQKPGKAPKLLIYAASSLQNGVPSRFSGSGSGTDFTLTISSLQPEDFATYFCQQADSFPRTFGQGTKLEIK is 0.36
